As shown below, each of these compounds has a reported remaining activity at 0.1 µM value.
molecular target: CDK4 (Homo sapiens, UniProt P11802); experiment: CDK4 in vitro kinase inhibition (protocol similar to Example 14); assay type: biochemical; conditions: 100 nM; mean of three (standard deviation); read-out: CDK4 % remaining kinase activity after incubation with 100 nM of compound
Sequence (P11802 whole entry): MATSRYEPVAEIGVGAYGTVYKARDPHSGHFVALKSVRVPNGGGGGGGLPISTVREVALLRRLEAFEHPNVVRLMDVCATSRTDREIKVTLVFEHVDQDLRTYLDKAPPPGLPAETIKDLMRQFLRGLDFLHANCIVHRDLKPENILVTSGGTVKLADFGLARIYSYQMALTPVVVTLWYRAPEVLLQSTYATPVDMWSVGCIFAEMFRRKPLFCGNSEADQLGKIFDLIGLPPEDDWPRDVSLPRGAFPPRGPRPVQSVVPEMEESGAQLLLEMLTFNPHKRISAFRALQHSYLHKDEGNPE
Sequence (P24385 whole entry partner): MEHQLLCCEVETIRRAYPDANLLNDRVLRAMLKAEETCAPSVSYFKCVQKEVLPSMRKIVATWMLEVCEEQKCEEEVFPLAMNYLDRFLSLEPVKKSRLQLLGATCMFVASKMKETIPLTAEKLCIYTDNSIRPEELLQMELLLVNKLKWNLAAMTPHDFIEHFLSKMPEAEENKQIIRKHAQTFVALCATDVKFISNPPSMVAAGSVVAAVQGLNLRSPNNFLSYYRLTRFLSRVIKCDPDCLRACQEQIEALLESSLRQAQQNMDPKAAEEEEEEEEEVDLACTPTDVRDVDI
Provide only the numeric value, understood in %.

{"smiles.string": "CC(C)c1cnn2c(NCc3ccccc3)cc(N[C@@H](CO)CCCCCCc3cncnc3)nc12", "system.under.test": "CDK4 (Homo sapiens, UniProt P11802)", "unit.tag": "%", "reported": 99}
{"smiles.string": "CC(C)c1cnn2c(NCc3ccccc3F)cc(NCCO)nc12", "system.under.test": "CDK4 (Homo sapiens, UniProt P11802)", "unit.tag": "%", "reported": 100}

**Query** So what does the record say about remaining activity at 0.1 µM for CC(C)c1cnn2c(NCc3ccccc3F)cc(NCCCCCN)nc12 ?
**Result** 99

---

Biological target: UniProtKB P24941
Test: Kinase screen: CDK2/cyclin A assay
Conditions: kinase screen
Experimental: Generally, the same procedure was used for all assays. The basic procedure was to add 0.5 microliters inhibitor/control in DMSO to plate. Fifteen microliters of enzyme/substrate/buffer mix were added and incubated for 5 min. Ten microliters MgATP at the relevant concentration were added and incubated for 30 min. The assay was stopped by adding 5 microliters of 3% orthophosphoric acid. The assay was transferred to a p81 filter plate and read in a scintillation counter of 30 sec/well. […]
observation.type: pIC50
Scale: pIC50 equals -log10([C]), with [C] in mol/L.

**Query** So what does the record say about pIC50 for CC(C)c1cnn2c(NCc3ccccc3)cc(NCCCCCCCN)nc12 ?
**Result** 6.12

---

Observed IC50 for CAK (CDK7) (Homo sapiens), reported per entry below.
Provide only the numeric value, understood in nM.

Worked set:
{"compound": "CC(C)c1cnn2c(NCc3ccccc3F)cc(NC(CO)CCCCCCCc3ccc(F)nc3)nc12 (stereo not shown)", "system.under.test": "CAK (CDK7) (Homo sapiens)", "unit.tag": "nM", "IC50": 46}
{"compound": "CC(C)c1cnn2c(NCc3ccccc3F)cc(NC(CO)CCCCCCc3ccccn3)nc12 (stereo not shown)", "system.under.test": "CAK (CDK7) (Homo sapiens)", "unit.tag": "nM", "IC50": 44}
{"compound": "CC(C)c1cnn2c(NCc3ccccc3)cc(N[C@@H](CO)CCCCCCCc3ccc(F)nc3)nc12", "system.under.test": "CAK (CDK7) (Homo sapiens)", "unit.tag": "nM", "IC50": 80}

**Query** API: value(readout=IC50, system=CAK (CDK7) (Homo sapiens)) for record CC(C)c1cnn2c(NCc3ccccc3F)cc(N[C@@H](CO)CCCCCCc3ncccn3)nc12
**Result** 55

**Query** API: value(readout=IC50, system=CAK (CDK7) (Homo sapiens)) for record CC(C)c1cnn2c(NCc3ccccc3)cc(NC(CO)CCCCCCc3ccccn3)nc12 (stereo not shown)
**Result** 42

**Query** API: value(readout=IC50, system=CAK (CDK7) (Homo sapiens)) for record CC(C)c1cnn2c(NCc3ccccc3F)cc(NC(CO)CCCCCCCc3cncnc3)nc12 (stereo not shown)
**Result** 120

**Query** API: value(readout=IC50, system=CAK (CDK7) (Homo sapiens)) for record CC(C)c1cnn2c(NCc3ccccc3)cc(NCCCCCCC#N)nc12
**Result** 20

---

test system: MCF-7 cell line; experiment: cells; assay type: cell-based; conditions: Homo sapiens, MCF7, 24 h
As shown below, each of these compounds has a reported IC50 value.

{"compound": "CC(C)c1cnn2c(NCc3ccccc3)cc(N[C@@H](CO)[C@@H](O)CO)nc12 [ICEC0319]", "observation.type": "IC50", "reported": "< 2000 nM"}

Please find the next compound below.
**Query** So what does the record say about IC50 for CC(C)c1cnn2c(NCc3ccccc3)cc(N[C@@H](CO)[C@H](O)CO)nc12 [ICEC0318] ?
**Result** < 2000 nM

---

As shown below, each of these compounds has a reported IC50 value.
biological target: CDK2/cyclin A complex (Homo sapiens, UniProt P24941); construct: purchased Proqinase GmbH, Germany; assay: CDK2/cyclin A kinase assay (as for CDK7); type: biochemical; details: Table 7, mean of three experiments; read-out: CDK2 kinase inhibition in vitro (IC50)
Provide only the numeric value, understood in nM.

{"smiles.string": "CC(C)c1cnn2c(NCc3ccccc3)cc(N[C@@H](CO)CCCCCCc3cncnc3)nc12", "system.under.test": "CDK2/cyclin A complex (Homo sapiens, UniProt P24941)", "reported": 100}
{"smiles.string": "CC(C)c1cnn2c(N[C@H](C)c3ccccc3)cc(NCCCCCCN)nc12", "system.under.test": "CDK2/cyclin A complex (Homo sapiens, UniProt P24941)", "reported": 30}
{"smiles.string": "CC(C)c1cnn2c(NCc3ccccc3F)cc(NCCCCCN)nc12", "system.under.test": "CDK2/cyclin A complex (Homo sapiens, UniProt P24941)", "reported": 310}

Please find the next compound below.
**Query** API: value(readout=IC50, system=CDK2/cyclin A complex (Homo sapiens, UniProt P24941)) for record CC(C)Nc1cc(NCc2ccccc2)n2ncc(C(C)C)c2n1
**Result** 100

---

target: CDK2/cyclin A complex (Homo sapiens, UniProt P24941); construct: purchased Proqinase GmbH, Germany; assay: CDK2/cyclin A kinase assay (as for CDK7); type: biochemical; conditions: 100 nM; mean of three (standard deviation); read-out: CDK2 % remaining kinase activity after incubation with 100 nM of compound
One threshold, 90%, splits the recorded remaining activity at 0.1 µM values: lower ones are condition met, equal or higher ones are condition not met.

{"compound": "CC(C)c1cnn2c(NCc3ccc(C(F)(F)F)cc3)cc(Cl)nc12", "discrete.label": "condition met"}
{"compound": "CC(C)c1cnn2c(NCc3ccccc3F)cc(N[C@@H](CO)CCCCCCc3ncccn3)nc12", "discrete.label": "condition met"}
{"compound": "CC(C)Nc1cc(NCc2ccccc2)n2ncc(C(C)C)c2n1", "discrete.label": "condition met"}

Continue with the compound presented below.
**Query** Dear colleague, could you confirm whether remaining activity at 0.1 µM of CC(C)c1cnn2c(NCc3ccccc3F)cc(NC(CO)CCCCCCCc3ccc(F)nc3)nc12 (centres unmarked) falls below 90%? Thanks.
**Result** condition not met

---

biological target: CDK9/cyclin T complex (Homo sapiens, UniProt P50750); construct: purchased Proqinase GmbH, Germany; test: CDK9/cyclin T kinase assay (as for CDK7); format: biochemical; details: 100 nM; mean of three (standard deviation); read-out: CDK9 % remaining kinase activity after incubation with 100 nM of compound
Sequence (P50750 whole entry): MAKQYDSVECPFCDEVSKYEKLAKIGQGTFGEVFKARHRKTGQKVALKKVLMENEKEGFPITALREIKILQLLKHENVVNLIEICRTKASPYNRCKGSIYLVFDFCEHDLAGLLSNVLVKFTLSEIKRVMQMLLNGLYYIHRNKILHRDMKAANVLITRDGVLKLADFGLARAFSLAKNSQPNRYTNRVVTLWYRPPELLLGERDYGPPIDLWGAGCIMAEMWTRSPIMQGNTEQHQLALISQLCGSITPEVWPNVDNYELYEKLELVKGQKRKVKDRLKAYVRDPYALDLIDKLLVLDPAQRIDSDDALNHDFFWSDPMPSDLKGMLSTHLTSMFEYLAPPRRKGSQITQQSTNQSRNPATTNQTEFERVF
Sequence (O60563 whole entry partner): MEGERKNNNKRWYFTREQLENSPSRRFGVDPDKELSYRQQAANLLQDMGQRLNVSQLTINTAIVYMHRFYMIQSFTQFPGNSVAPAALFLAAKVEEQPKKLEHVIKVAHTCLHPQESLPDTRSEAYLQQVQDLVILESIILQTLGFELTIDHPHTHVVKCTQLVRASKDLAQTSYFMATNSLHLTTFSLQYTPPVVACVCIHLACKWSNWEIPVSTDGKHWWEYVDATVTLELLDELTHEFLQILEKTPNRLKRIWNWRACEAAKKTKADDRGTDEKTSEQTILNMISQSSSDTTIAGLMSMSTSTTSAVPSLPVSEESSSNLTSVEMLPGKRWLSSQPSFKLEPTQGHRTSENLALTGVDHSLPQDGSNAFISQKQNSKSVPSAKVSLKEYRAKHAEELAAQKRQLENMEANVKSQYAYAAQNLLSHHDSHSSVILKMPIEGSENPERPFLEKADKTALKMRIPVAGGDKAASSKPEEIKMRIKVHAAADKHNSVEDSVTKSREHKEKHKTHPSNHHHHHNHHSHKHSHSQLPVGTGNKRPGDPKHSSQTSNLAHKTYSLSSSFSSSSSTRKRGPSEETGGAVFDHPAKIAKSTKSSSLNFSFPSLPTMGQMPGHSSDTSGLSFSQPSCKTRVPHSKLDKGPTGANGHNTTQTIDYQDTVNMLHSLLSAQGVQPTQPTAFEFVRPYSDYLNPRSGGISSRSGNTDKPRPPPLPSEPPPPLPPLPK
observation.type: remaining activity at 0.1 µM (%)
Provide only the numeric value, understood in %.

Worked set:
{"compound": "CC(C)c1cnn2c(NCc3ccccc3)cc(N[C@@H](CO)CCCCCCCc3ccc(F)nc3)nc12", "remaining activity at 0.1 µM (%)": 95}
{"compound": "CC(C)c1cnn2c(NCc3ccccc3F)cc(NC(CO)CCCCCCCc3cncnc3)nc12 (stereo not drawn)", "remaining activity at 0.1 µM (%)": 91}
{"compound": "CC(C)c1cnn2c(NCc3ccccc3)cc(NCCOCCO)nc12", "remaining activity at 0.1 µM (%)": 90}
{"compound": "CC(C)c1cnn2c(NCc3ccccc3)cc(N[C@@H](CO)[C@H](O)CO)nc12", "remaining activity at 0.1 µM (%)": 56}
{"compound": "CC(C)c1cnn2c(NCc3ccccc3F)cc(NCCCCCCN)nc12", "remaining activity at 0.1 µM (%)": 99}

Please find the next compound below.
**Query** So what does the record say about remaining activity at 0.1 µM for CC[C@H](CO)Nc1cc(NCc2ccccc2)n2ncc(C(C)C)c2n1 ?
**Result** 85

---

test system: VEG-FR; assay: Kinase screen: VEG-FR assay; type: biochemical; conditions: 10 micromolar compound
As shown below, each of these compounds has a reported mean activity remaining (as a percentage of the original activity), VEG-FR value.
Provide only the numeric value, understood in %.

{"compound": "C=C[C@H](CO)Nc1cc(NCc2ccccc2)n2ncc(C(C)C)c2n1 [ICEC0065]", "reported": 101}
{"compound": "CC(C)c1cnn2c(NCc3ccccc3F)cc(NCCCCCN)nc12 [ICEC-0232]", "reported": 105}
{"compound": "CC[C@H](CO)Nc1cc(NCc2ccccc2)n2ncc(C(C)C)c2n1 [ICEC0067]", "reported": 99}

**Query** So what does the record say about mean activity remaining (as a percentage of the original activity), VEG-FR for CC(C)c1cnn2c(NCc3ccccc3)cc(N[C@@H](CO)[C@H](O)CO)nc12 [ICEC0318] ?
**Result** 92
